FYI, the data here is from the domain aggregation screens of Martell et al. (2025).

- experiment-notes: soluble fraction after stress (log2 fold change); higher = more stays soluble; pooled small domains, quantitative proteomics
- experimental-setup: stress: pH 4
Returns rule met if the recorded soluble fraction (log2) is greater than or equal to -0.5, and rule not met otherwise.

The following sequences have reported results that may help.
HMEMVSMPGLTGSTLEFATKTLTENELKYEVVYIVDASAESGLIIRTYPTEGEMVSKKTSTIYLYIKE    rule met
HMDYTGIPQSLLDLMKKDNIMPMQIQRAVAERNYYPVDTPISNYDPMFIEAKLVGAWDQVLNVISHLDLP    rule not met
HMNKVAQFYRELVSTLSERLRNGERDIDALVEQARVRISQSGELTQSEIENVIRAVRRDLEEFALSYEE    rule not met
HMISASDLQTYLKGMDYPARKEDLIVHAQRNNAPESVIAAIRQFSDRTYQSAADVSEEFGKI    rule met

Next:
QUERY: Please indicate if the recorded soluble fraction (log2) for HMSFPLKRGSKGNRVTQLQNALVKKFGASILPKYGVDGMFGKEVEAALVRAKLPTSINESTYNSFV meets or exceeds -0.5.
RESULT: rule met

----------
- experiment-notes: soluble fraction after stress (log2 fold change); higher = more stays soluble; pooled small domains, quantitative proteomics
- experimental-setup: stress: pH 4
Collected soluble fraction (log2) values appear next to each entry.
Kindly provide the number alone.

Below, 2 sequences whose answers are already recorded.
HMKRANGTGSVFKLNGKRRNPWVARVTQGFDDKGRQKYVNLGYYKTKREAENELLSYNSNPYDAN    -0.0271
HMRGGKGTVPDVTGMDAAAAVRILEKAGMNVAYIRGAGFVAEQTPAAGTKLKKGDKAYITLSWK    0.181

QUERY: Provide measured soluble fraction (log2) value, entry: HMYNNGYVNSDRVNFRKGASTNSDIYKVLDKNTSVTILDYEGDWSKVKINDTVGYVYTKYITAG
RESULT: -0.0882

QUERY: Look up soluble fraction (log2) of HMEAVIENAAIIKQNSGGYAVRATVNGVDLGMKPVERATALLYFSLTDKLEKDRLLSHTLQKTYGDLSA and report it.
RESULT: -0.213

----------
- experiment-notes: soluble fraction after stress (log2 fold change); higher = more stays soluble; pooled small domains, quantitative proteomics
- experimental-setup: stress: pH 4
# if value of soluble fraction (log2) reaches -0.2, tag yes; if it stays below, tag no

HMTGKLGKIILQPKQTVYGITKKYQISESELRRLNPQLDSHLKIGDEVILPAENIKKFGGNQPVAVS    yes
HMADLVYLRKRLQDAIAQLPEDMRTAYTLFQIARRSIREIAELTGASESLVKVRIHRAKGKLQELLEDLR    no

QUERY: Is soluble fraction (log2) at least -0.2? Consider HMQKEMDIVLQINGKMRSNLKVSSTANDDEIIKTAIESDAYKKFSLGLRIQKTIIVPNRLINIVLEK
RESULT: yes

QUERY: Is reported soluble fraction (log2) greater than or equal to -0.2 here: HMKDANIQIGKRLREARLNMNLEKSEIADVLGVTVEHYRKLEAGVMGISVDKVLTLYHKYGIDPTYLITG
RESULT: no

QUERY: Reported soluble fraction (log2) at or above -0.2? HMSNNLAYSQFLDRVKNKEIRKVEIRGQSIVGYTSNNETFKTYAPLNDPKMYDELLTNDVQVQVDPP
RESULT: yes

QUERY: Given the entry HMEGIAEILPASVRQKYGLIGLYDALRGLHFPGNMEEIKAARQRLAFEDTLMFSLTLSMMQYS , answer whether its soluble fraction (log2) meets or surpasses -0.2.
RESULT: yes

QUERY: Please check the record HMGTPKMPLSLYLSMVENLRSLKRFALVNQQVKDGFVFFNDVAGIKRLQELLNYHNTGEKPSE and state if its soluble fraction (log2) is at or above -0.2.
RESULT: no

QUERY: Does the reported soluble fraction (log2) for HMWAVDFVLLDKDDQRIGNAVAYRDDRTKGMDEEVYRTVPEEELYASTGIQKQIFNSIYQLMAWKK fall at or above the -0.2 mark?
RESULT: no

QUERY: Hi team, for HMITIDADTGKRVYTRKEVADLVGASTQSIRLWEDAGAIPASVRDEGGYRYWYEEDLEAIKAYAS , is the recorded soluble fraction (log2) at or above -0.2?
RESULT: no

QUERY: Check if soluble fraction (log2) >= -0.2 (inclusive). Item: HMIITTPYKVTASAINIRSGRGTSYSIIGTVSKGQTVDVYNNSLSKGWVKVKFSGSVGYAYAKYLEK
RESULT: yes
